Consider the following binders and their measured pKd readings.
- ASSAYED_SYSTEM: T1, human ROR1 Frizzled-His domain protein (amino acid sequence at positions 165-305, Acrobiosystems, RO1-H5222) (human, UniProt Q01973 165-305)
- T1 construct: also called Human ROR1 Frizzled-His protein; not shown: His tag
- T1 sequence (Q01973 165-305 limits assumed, form in doubt): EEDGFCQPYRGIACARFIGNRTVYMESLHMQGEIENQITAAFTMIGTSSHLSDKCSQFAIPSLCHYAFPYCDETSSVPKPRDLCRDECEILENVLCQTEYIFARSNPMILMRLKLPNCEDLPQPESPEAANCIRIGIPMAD
- ASSAY_PROCEDURE: SPR Biacore T200, method as Example 6 (antibody Fc-captured, antigen as analyte)
Scale explanation: pKd corresponds to minus log10 of a concentration expressed in moles per litre.

See these solved cases before continuing.
>>> observed_value("single domain antibody AHP15662-VHH4-Variant3 (Fc fusion, Fc format is inferred; not shown: human IgG1 Fc; vector and li) EVQLVESGGGLVQPGGSLRLSCAASHYISRFYAVGWYRQAPGKQRELVARISSGGWTYYADSVKGRFTISIDNSKNTLYLQMNSLRAEDTAVYYCNARNLWGQGTLVTVSS")
7.40
>>> observed_value("humanized single domain antibody AHP15662-VHH4 (Fc fusion, Humanized VHH expressed from pcDNA3.4-Fc (Human IgG1); not shown: human IgG1 Fc of the pcDNA3.4-Fc (Human IgG1) expression vector) EVQLVESGGGLVQPGGSLRLSCAASGSISRFYAVGWYRQAPGKQRELVARISSGGSTYYADSVKGRFTISIDNSKNTLYLQMNSLRAEDTAVYYCNARNLWGQGTLVTVSS")
6.53
>>> observed_value("single domain antibody AHP15662-VHH4-Variant2 (Fc fusion, Fc format is inferred; not shown: human IgG1 Fc; vector and li) EVQLVESGGGLVQPGGSLRLSCAASYFISRFYAVGWYRQAPGKQRELVARISSGGWTYYADSVKGRFTISIDNSKNTLYLQMNSLRAEDTAVYYCNARNLWGQGTLVTVSS")
7.12

Note: attention shifts to another entry.
Looking up single domain antibody AHF21720 (Fc fusion, Fc format is inferred; not shown: human IgG1 Fc; vector and li) EVQLVESGGGLVQPGGSLRLSCAASGYISRFYAMGWYRQAPGKQRELVARISSLGWTYYADSVKGRFTISIDNSKNTLYLQMNSLRAEDTAVYYCNARNLWGQGTLVTVSS , I found its pKd recorded as 7.77
